# Tested on: OVCAR-5 complex spheroids, viability
# experimental_details: Anticancer human tumor OVCAR-5 cell line growth inhibition; active = viability on the fitted dose curve at most 10% of control; inactive = the rest;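 also: spheroids exposed to agents for seven days; 100% = DMSO vehicle control wells viability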
# condition_notes: second compound 3.16 µM; first compound 0.00949 µM
Returns: one label drawn from 1 (active), 0 (inactive)

Examples with answers:
COc1cc(C2c3cc4c(cc3C(OC3OC5COC(C)OC5C(O)C3O)C3COC(=O)C23)OCO4)cc(OC)c1O (stereo not given) + NC1CC1c1ccc(-c2cccc(O)c2)cc1: 0
O=C(C=Cc1cccc(S(=O)(=O)Nc2ccccc2)c1)NO + NC1CCC(NC2CC2c2ccccc2)CC1: 0
CCc1c2c(nc3ccc(O)cc13)-c1cc3c(c(=O)n1C2)COC(=O)[C@]3(O)CC + NC1CC1c1ccc(-c2cccc(O)c2)cc1: 1
CCc1c2c(nc3ccc(O)cc13)-c1cc3c(c(=O)n1C2)COC(=O)[C@]3(O)CC + NC1CCC(NC2CC2c2ccccc2)CC1: 0

Req: For NS(=O)(=O)OCC1CC(n2ccc3c(NC4CCc5ccccc54)ncnc32)CC1O (stereo not given) + NC1CC1c1ccc(-c2cccc(O)c2)cc1 , which call appears in the assay record?
Resp: 0

Req: What do we get for CCN(c1cc(-c2ccc(CN3CCOCC3)cc2)cc(C(=O)NCc2c(C)cc(C)[nH]c2=O)c1C)C1CCOCC1 + NC1CCC(NC2CC2c2ccccc2)CC1 ?
Resp: 0

Req: What do you have for COc1cc(C2c3cc4c(cc3C(OC3OC5COC(C)OC5C(O)C3O)C3COC(=O)C23)OCO4)cc(OC)c1O (stereo not given) + NC1CCC(NC2CC2c2ccccc2)CC1 ?
Resp: 0

Req: Now consider O=C(C=Cc1cccc(S(=O)(=O)Nc2ccccc2)c1)NO + NC1CC1c1ccc(-c2cccc(O)c2)cc1 .
Resp: 0

Req: NS(=O)(=O)OCC1CC(n2ccc3c(NC4CCc5ccccc54)ncnc32)CC1O (stereo not given) + NC1CCC(NC2CC2c2ccccc2)CC1 , same question.
Resp: 0

Req: Now give it for Nc1ccccc1NC(=O)c1ccc(CNC(=O)OCc2cccnc2)cc1 + NC1CCC(NC2CC2c2ccccc2)CC1 too.
Resp: 0

* * *

For each entry below, report its viability, T/C value.
# Tested on: OVCAR-5 complex spheroids, viability
# experimental_details: Anticancer human tumor OVCAR-5 cell line growth inhibition;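 also: spheroids exposed to agents for seven days; 100% = DMSO vehicle control wells viability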
# condition_notes: second compound 1 µM; first compound 1 µM; hits give low values

Go through the items and report each one's viability, T/C.
1. CC1COCCN1c1cc(C2(S(C)(=N)=O)CC2)nc(-c2ccnc3[nH]ccc23)n1 (configuration not stated) + NC1CCC(NC2CC2c2ccccc2)CC1
2. CC1(C)CCC(CN2CCN(c3ccc(C(=O)NS(=O)(=O)c4ccc(NCC5CCOCC5)c([N+](=O)[O-])c4)c(Oc4cnc5[nH]ccc5c4)c3)CC2)=C(c2ccc(Cl)cc2)C1 + NC1CCC(NC2CC2c2ccccc2)CC1

Resp:
1: 70.9%; 2: 101%

* * *

# System: OVCAR-5 complex spheroids, viability
# experimental_details: Anticancer human tumor OVCAR-5 cell line growth inhibition;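 also: spheroids exposed to agents for seven days; 100% = DMSO vehicle control wells viability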
# condition_notes: second compound 1 µM; first compound 0.949 µM; hits give low values
assay_readout: viability, T/C

// worked examples, viability, T/C included
CCN(c1cc(-c2ccc(CN3CCOCC3)cc2)cc(C(=O)NCc2c(C)cc(C)[nH]c2=O)c1C)C1CCOCC1 + NC1CCC(NC2CC2c2ccccc2)CC1: 96.5%
COc1cc(C2c3cc4c(cc3C(OC3OC5COC(C)OC5C(O)C3O)C3COC(=O)C23)OCO4)cc(OC)c1O (centres undefined) + NC1CC1c1ccc(-c2cccc(O)c2)cc1: 31.4%
COc1cc(C2c3cc4c(cc3C(OC3OC5COC(C)OC5C(O)C3O)C3COC(=O)C23)OCO4)cc(OC)c1O (centres undefined) + NC1CCC(NC2CC2c2ccccc2)CC1: 50%

We next turn to a different compound, shown below.
Req: Which value of viability, T/C has been reported for O=C(C=Cc1cccc(S(=O)(=O)Nc2ccccc2)c1)NO + NC1CCC(NC2CC2c2ccccc2)CC1 in the records?
Resp: 14.3%
